Recorded values, source the supplement of paper PMC11061612.

# Test system: MDA-MB-175-VII (Breast Carcinoma)
# Assay notes: Bliss excess, mean over the matrix (fraction); higher = more synergy
Note to self: values exactly at -0.02 are Y. So Bliss excess at or above -0.02 is Y, below is N.

Input: Reported Bliss excess reaches at least -0.02 for C=CCn1c(=O)c2cnc(Nc3ccc(N4CCN(C)CC4)cc3)nc2n1-c1cccc(C(C)(C)O)n1 [AZD1775] + C[C@@H]1COCCN1C2=NC(=NC(=C2)C3(CC3)[S@](=N)(=O)C)C4=C5C=CNC5=NC=C4 [AZD6738] (first compound max 1 µM, partner max 10 µM) ?
Output: Y

Input: Please check the record CCc1c2c(nc3ccc(O)cc13)-c1cc3c(c(=O)n1C2)COC(=O)[C@]3(O)CC [SN-38] + CN(C)CCCOc1ccc(-c2ccc3ncc4c(c3c2)n(C2CCOCC2)c(=O)n4C)cn1 [AZD0156] (first compound max 0.3 µM, 7x7, partner max 1 µM) and state if its Bliss excess is at or above -0.02.
Output: Y

New cases:
Input: Please check the record NC1(C(=O)N[C@@H](CCO)c2ccc(Cl)cc2)CCN(c2ncnc3[nH]ccc23)CC1 [Capivasertib] + COc1nnc2ccc(N3CCC(c4ccc(OCCN5CCN(C)C(=O)[C@H]5C)cc4)CC3)nn12 [AZD5153] (first compound max 10 µM, 7x7, partner max 1 µM) and state if its Bliss excess is at or above -0.02.
Output: Y

Input: Could you please find out whether Cc1c2c(nn1C)CSCc1cc(n(C)n1)CSc1cc(c3ccccc3c1)OCCCc1c(C(=O)O)n(C)c3c-2c(Cl)ccc13 [AZD5991] + C=CCn1c(=O)c2cnc(Nc3ccc(N4CCN(C)CC4)cc3)nc2n1-c1cccc(C(C)(C)O)n1 [AZD1775] (first compound max 1 µM, partner max 1 µM) has Bliss excess that meets -0.02 or exceeds it?
Output: N

Input: Is reported Bliss excess greater than or equal to -0.02 here: N#Cc1cnc(Nc2cc(NC[C@H]3CNCCO3)c(C(F)(F)F)cn2)cn1 [SRA737] + CCc1c2c(nc3ccc(O)cc13)-c1cc3c(c(=O)n1C2)COC(=O)[C@]3(O)CC [SN-38] (first compound max 10 µM, 7x7, partner max 0.3 µM)
Output: N

Input: Answer whether Bliss excess of COc1nnc2ccc(N3CCC(c4ccc(OCCN5CCN(C)C(=O)[C@H]5C)cc4)CC3)nn12 [AZD5153] + CCN(CCO)CCCOc1ccc2c(Nc3cc(CC(=O)Nc4cccc(F)c4)[nH]n3)ncnc2c1 [AZD2811] (first compound max 1 µM, 7x7, partner max 1 µM) is greater than or equal to -0.02.
Output: Y

Input: Does the compound C=CCn1c(=O)c2cnc(Nc3ccc(N4CCN(C)CC4)cc3)nc2n1-c1cccc(C(C)(C)O)n1 [AZD1775] + O=C(c1cc(Cc2n[nH]c(=O)c3ccccc23)ccc1F)N1CCN(C(=O)C2CC2)CC1 [Olaparib] (first compound max 1 µM, partner max 10 µM) have recorded Bliss excess that is -0.02 or more?
Output: N

Input: Hi, just wondering whether NC1(C(=O)N[C@@H](CCO)c2ccc(Cl)cc2)CCN(c2ncnc3[nH]ccc23)CC1 [Capivasertib] + Cn1cnc2c(F)c(Nc3ccc(Br)cc3Cl)c(C(=O)NOCCO)cc21 [Selumetinib] (first compound max 10 µM, 7x7, partner max 10 µM) shows Bliss excess of -0.02 or higher.
Output: Y

###

# Test system: HT-1197 (Bladder Carcinoma)
# Assay notes: Bliss excess, mean over the matrix (fraction); higher = more synergy
Each record here notes measured Bliss excess.
Could you respond with only the numeric value?

Answered examples (2):
Input: Checklist item: Bliss excess tested on HT-1197 (Bladder Carcinoma), entry Cc1cc2ncnn2cc1Nc1ncc2c(n1)n(C1CCOCC1)c(=O)n2C [AZD7648] + O=C(c1cc(Cc2n[nH]c(=O)c3ccccc23)ccc1F)N1CCN(C(=O)C2CC2)CC1 [Olaparib] (first compound max 10 µM, 7x7, partner max 10 µM) , value?
Output: 0.0045

Input: Given the entry CN(CCO)CC[C@H](CSc1ccccc1)Nc1ccc(S(=O)(=O)NC(=O)c2ccc(N3CCC([C@@H](O)c4ccccc4-c4ccc(Cl)cc4)CC3)cc2)cc1S(=O)(=O)C(F)(F)F [AZD4320] + CN(C)CCCOc1ccc(-c2ccc3ncc4c(c3c2)n(C2CCOCC2)c(=O)n4C)cn1 [AZD0156] (first compound max 1 µM, 7x7, partner max 1 µM) , what Bliss excess was observed with HT-1197 (Bladder Carcinoma)?
Output: -0.0506

More entries:
Input: // lookup Bliss excess | system=HT-1197 (Bladder Carcinoma) | key= COc1nnc2ccc(N3CCC(c4ccc(OCCN5CCN(C)C(=O)[C@H]5C)cc4)CC3)nn12 [AZD5153] + CN(CC[C@H](CSC1=CC=CC=C1)NC2=C(C=C(C=C2)S(=O)(=O)NC(=O)C3=CC=C(C=C3)N4CCC(CC4)[C@H](C5=CC=CC=C5C6=CC=C(C=C6)Cl)O)S(=O)(=O)C(F)(F)F)CCO [AZD4320] (first compound max 1 µM, 7x7, partner max 1 µM)
Output: 0.073

###

# System: NCI-H2023 (Non-Small Cell Lung Carcinoma)
# Assay notes: Bliss excess, mean over the matrix (fraction); higher = more synergy
Examples of compounds with documented Bliss excess follow.

Would you please look over these solved cases?
Input: Bliss excess for CN(CCO)CC[C@H](CSc1ccccc1)Nc1ccc(S(=O)(=O)NC(=O)c2ccc(N3CCC([C@@H](O)c4ccccc4-c4ccc(Cl)cc4)CC3)cc2)cc1S(=O)(=O)C(F)(F)F [AZD4320] + CCN(CCO)CCCOc1ccc2c(Nc3cc(CC(=O)Nc4cccc(F)c4)[nH]n3)ncnc2c1 [AZD2811] (first compound max 1 µM, 7x7, partner max 1 µM) ?
Output: -0.0636

Input: Query (compound): COc1cccc(OCCCN)c1-c1cc(Nc2cnc(C#N)cn2)n[nH]1 [Prexasertib] + CN(C)CCCOc1ccc(-c2ccc3ncc4c(c3c2)n(C2CCOCC2)c(=O)n4C)cn1 [AZD0156] (first compound max 1 µM, 7x7, partner max 1 µM) ; field requested: Bliss excess
Output: -0.0373

// below: Bliss excess requested for another compound
Input: Reported Bliss excess for CS(=O)(=O)CCNCc1ccc(-c2ccc3ncnc(Nc4ccc(OCc5cccc(F)c5)c(Cl)c4)c3c2)o1 [Lapatinib] + Cn1cnc2c(F)c(Nc3ccc(Br)cc3Cl)c(C(=O)NOCCO)cc21 [Selumetinib] (first compound max 10 µM, 7x7, partner max 10 µM) : what is it?
Output: -0.0391

###

# System: COR-L105 (Lung Adenocarcinoma)
# Assay notes: combination Emax (second highest fraction inhibited in the dose matrix, 72 h); higher = more inhibition; extreme values may be limits of the assay
Reported metric: combination Emax
Lab note: record the figure alone, no unit after it.

As a guide, the following entries are already answered.
Input: Give COR-L105 (Lung Adenocarcinoma) combination Emax for Cc1c2c(nn1C)CSCc1cc(n(C)n1)CSc1cc(c3ccccc3c1)OCCCc1c(C(=O)O)n(C)c3c-2c(Cl)ccc13 [AZD5991] + C1CN(CCC1(C(=O)N[C@@H](CCO)C2=CC=C(C=C2)Cl)N)C3=NC=NC4=C3C=CN4 [Capivasertib] (first compound max 1 µM, 7x7, partner max 3 µM)
Output: 0.248

Input: Request body: readout combination Emax, system COR-L105 (Lung Adenocarcinoma), query NC1(C(=O)N[C@@H](CCO)c2ccc(Cl)cc2)CCN(c2ncnc3[nH]ccc23)CC1 [Capivasertib] + Cn1cnc2c(F)c(Nc3ccc(Br)cc3Cl)c(C(=O)NOCCO)cc21 [Selumetinib] (first compound max 10 µM, 7x7, partner max 10 µM) . Return the value.
Output: 0.492

Input: # query: combination Emax | item COc1cccc(OCCCN)c1-c1cc(Nc2cnc(C#N)cn2)n[nH]1 [Prexasertib] + C=CCn1c(=O)c2cnc(Nc3ccc(N4CCN(C)CC4)cc3)nc2n1-c1cccc(C(C)(C)O)n1 [AZD1775] (first compound max 1 µM, partner max 1 µM) | system: COR-L105 (Lung Adenocarcinoma)
Output: 0.444

Continuing:
Input: What measured combination Emax is associated with N#Cc1cnc(Nc2cc(NC[C@H]3CNCCO3)c(C(F)(F)F)cn2)cn1 [SRA737] + CCc1c2c(nc3ccc(O)cc13)-c1cc3c(c(=O)n1C2)COC(=O)[C@]3(O)CC [SN-38] (first compound max 10 µM, 7x7, partner max 0.3 µM) on COR-L105 (Lung Adenocarcinoma)?
Output: 0.38

###

# System: COR-L105 (Lung Adenocarcinoma)
# Assay notes: Bliss excess, mean over the matrix (fraction); higher = more synergy
We use -0.04 as the dividing line for Bliss excess: on or above the line is T, below is F.

Input: Hi team, for Cc1cc2ncnn2cc1Nc1ncc2c(n1)n(C1CCOCC1)c(=O)n2C [AZD7648] + O=C(c1cc(Cc2n[nH]c(=O)c3ccccc23)ccc1F)N1CCN(C(=O)C2CC2)CC1 [Olaparib] (first compound max 10 µM, 7x7, partner max 10 µM) , is the recorded Bliss excess at or above -0.04?
Output: T

Further cases:
Input: Tell me whether Bliss excess is at least -0.04 here: CC1(C)CCC(CN2CCN(c3ccc(C(=O)NS(=O)(=O)c4ccc(NCC5CCOCC5)c([N+](=O)[O-])c4)c(Oc4cnc5[nH]ccc5c4)c3)CC2)=C(c2ccc(Cl)cc2)C1 [Venetoclax] + CCN(CCO)CCCOc1ccc2c(Nc3cc(CC(=O)Nc4cccc(F)c4)[nH]n3)ncnc2c1 [AZD2811] (first compound max 1 µM, 7x7, partner max 1 µM)
Output: F

Input: hey, is Bliss excess for this one >= -0.04? COc1cc2ncnc(Nc3ccc(F)c(Cl)c3)c2cc1OCCCN1CCOCC1 [Gefitinib] + CC(C)n1c(=O)n(C)c2cnc3cc(F)c(-c4ccc(OCCCN5CCCCC5)nc4)cc3c21 [AZD1390] (first compound max 10 µM, 7x7, partner max 0.3 µM)
Output: T

Input: Would you say N#Cc1cnc(Nc2cc(NC[C@H]3CNCCO3)c(C(F)(F)F)cn2)cn1 [SRA737] + Nc1ccn([C@@H]2O[C@H](CO)[C@@H](O)C2(F)F)c(=O)n1 [Gemcitabine] (first compound max 10 µM, 7x7, partner max 0.3 µM) shows Bliss excess at minimum -0.04?
Output: T

Input: State whether the measured Bliss excess reaches -0.04, counting equality as reaching it, for Cn1cnc2c(F)c(Nc3ccc(Br)cc3Cl)c(C(=O)NOCCO)cc21 [Selumetinib] + CC(C)n1c(=O)n(C)c2cnc3cc(F)c(-c4ccc(OCCCN5CCCCC5)nc4)cc3c21 [AZD1390] (first compound max 10 µM, 7x7, partner max 0.3 µM)
Output: T

Input: Form field: Bliss excess at least -0.04? Entry: Cc1c2c(nn1C)CSCc1cc(n(C)n1)CSc1cc(c3ccccc3c1)OCCCc1c(C(=O)O)n(C)c3c-2c(Cl)ccc13 [AZD5991] + CCN(CCO)CCCOc1ccc2c(Nc3cc(CC(=O)Nc4cccc(F)c4)[nH]n3)ncnc2c1 [AZD2811] (first compound max 1 µM, 7x7, partner max 1 µM)
Output: F
